Hey, just so you know, these numbers are from patent US8586596B2.

Target: rat CB2 receptors (Rattus norvegicus, UniProt Q9QZN9)
Construct: expressed in transfected cells; membrane preparation
Sequence (Q9QZN9 1-360): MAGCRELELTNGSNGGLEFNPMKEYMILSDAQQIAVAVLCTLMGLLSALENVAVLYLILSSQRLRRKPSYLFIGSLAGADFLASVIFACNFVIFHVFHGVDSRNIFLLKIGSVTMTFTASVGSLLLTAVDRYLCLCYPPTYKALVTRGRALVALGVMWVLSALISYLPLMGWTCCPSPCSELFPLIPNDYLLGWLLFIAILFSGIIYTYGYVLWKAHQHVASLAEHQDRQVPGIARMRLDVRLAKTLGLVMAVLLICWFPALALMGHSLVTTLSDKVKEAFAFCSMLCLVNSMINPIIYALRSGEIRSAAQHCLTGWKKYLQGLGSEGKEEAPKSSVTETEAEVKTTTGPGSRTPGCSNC
Experiment: CB2 radioligand binding assay ([3H]CP 55,940 competition), rat
Details: membranes of HEK293 cells stably expressing rat CB2; 0.5 nM [3H]CP 55,940; read-out: rat CB2 binding (Ki)
pKi: −log10 of the molar value.
reported endpoint: pKi

>>> observed("CCCCn1/c(=N/C(=O)c2cc(C(F)(F)F)ccc2OC[C@H](C)O)sc2ncnc(O)c21")
6.80

----------
biological target: rat CB2 receptors (Rattus norvegicus); construct: expressed in transfected cells; membrane preparation; experiment: CB2 radioligand binding assay ([3H]CP 55,940 competition), rat
reported endpoint: Ki (nM)

>>> observed("CCCCn1/c(=N/C(=O)c2cc(C(F)(F)F)ccc2OC[C@H](C)O)sc2cnn(C)c(=O)c21 [Example 4]")
5
>>> observed("CCCCn1/c(=N/C(=O)c2cc(C(F)(F)F)ccc2OC[C@H](C)O)sc2ncncc21 [Example 3]")
4
>>> observed("CCCCn1/c(=N/C(=O)c2cc(C(F)(F)F)ccc2OC[C@H](C)O)sc2nccnc21 [Example 2]")
4.1
